tested on: Salmonella typhimurium TA1535; test: Ames test (reverse mutation test), TA1535; assay type: cell-based; details: S9 Mix +, 21 μg/plate
Readings of Number of revertant colonies TA1535 for the listed molecules

Some molecules with recorded Number of revertant colonies TA1535:
CC(C)(OCc1cc(F)cc(-c2cc(N)nn2-c2ccc(F)cc2)c1)C(F)(F)F [Metabolite D]; 14
Nc1cc(-c2cccc(OC(F)(F)F)c2)n(-c2cccc(F)c2)n1 [Metabolite G]; 11

Request: Identify Number of revertant colonies TA1535 associated with the molecule Cc1cccc(-n2nc(N)cc2-c2cccc(OC(F)(F)F)c2)c1 [Metabolite H]
Response: 19

Request: State, in one line, measured Number of revertant colonies TA1535 of Cc1ccc(-n2nc(N)cc2-c2cccc(OCC(F)(F)F)c2)cc1 [Metabolite F]
Response: 20

Request: Item Nc1cc(-c2cccc(OCC(F)(F)F)c2)n(-c2ccc(F)cc2)n1 [Metabolite E] : provide Number of revertant colonies TA1535
Response: 20

Attribution: patent US12721844B2
